Organism: Rattus norvegicus
assay_text: Open TG-GATES - Regimen: Daily Repeat
Type: toxicity, organism-based, Sprague-Dawley
Design: regimen Daily Repeat, gender Male, age 6 weeks
run_conditions: in vivo, po, 10 mg/kg, […], tissue Blood, route gavage, dose level Low, time 28 day
Would you kindly list RBC for each of these molecules?
Answer with a number only, understood to be in x10_4/ul.

[in] Identify RBC associated with the molecule CC(C)OC(=O)C(C)(C)Oc1ccc(C(=O)c2ccc(Cl)cc2)cc1 [FENOFIBRATE]
[out] 770.4

[in] Identify RBC associated with the molecule CN(C)CCCN1c2ccccc2CCc2ccccc21 [IMIPRAMINE]
[out] 773.2

[in] Identify RBC associated with the molecule CC1=C(/C=C/C(C)=C/C=C/C(C)=C/CO)C(C)(C)CCC1 [RETINOL]
[out] 756

[in] Identify RBC associated with the molecule `CN(C)CCN(Cc1cccs1)c1ccccn1`
[out] 758

====

Would you kindly list PL for each of these compounds?
Species: Rattus norvegicus
assay_text: Open TG-GATES - Regimen: Single
Type: toxicity, organism-based, Sprague-Dawley
Design: regimen Single, gender Male, age 6 weeks
run_conditions: in vivo, po, 100 mg/kg, 3 h, tissue Plasma, route gavage, dose level Low
Answer with a number only, understood to be in mg/dL.

[in] Identify PL associated with the compound NC(N)=Nc1nc(CSCCC(N)=NS(N)(=O)=O)cs1 [FAMOTIDINE]
[out] 144.6

[in] Identify PL associated with the compound CCOC(=O)CCC(=O)O[C@H]1[C@H](O[C@@H]2[C@@H](C)[C@H](O[C@H]3C[C@@](C)(OC)[C@@H](O)[C@H](C)O3)[C@@H](C)C(=O)O[C@H](CC)[C@@](C)(O)[C@H](O)[C@@H](C)C(=O)[C@H](C)C[C@@]2(C)O)O[C@H](C)C[C@@H]1N(C)C [ERYTHROMYCIN ETHYLSUCCINATE]
[out] 142.6

[in] Identify PL associated with the compound COc1ccc2[nH]c([S+]([O-])Cc3ncc(C)c(OC)c3C)nc2c1 (centres undefined) [OMEPRAZOLE]
[out] 144.8

[in] Identify PL associated with the compound COC1=CC(=O)C[C@@H](C)[C@]12Oc1c(Cl)c(OC)cc(OC)c1C2=O [GRISEOFULVIN]
[out] 164

====

Organism: Rattus norvegicus
assay_text: Open TG-GATES - Regimen: Daily Repeat
Type: toxicity, organism-based, Sprague-Dawley
Parameters: regimen Daily Repeat, gender Male, age 6 weeks
run_conditions: in vivo, po, 10 mg/kg, […], tissue Plasma, route gavage, dose level Low, time 14 day
Would you kindly list K for each of these compounds?
Answer with a number only, understood to be in meq/L.

[in] Identify K associated with the compound `CN(C)CCN(Cc1cccs1)c1ccccn1`
[out] 4.2

[in] Identify K associated with the compound CC1=C(/C=C/C(C)=C/C=C/C(C)=C/CO)C(C)(C)CCC1 [RETINOL]
[out] 4

[in] Identify K associated with the compound CC(C)OC(=O)C(C)(C)Oc1ccc(C(=O)c2ccc(Cl)cc2)cc1 [FENOFIBRATE]
[out] 4.3

[in] Identify K associated with the compound CN(C)CCCN1c2ccccc2CCc2ccccc21 [IMIPRAMINE]
[out] 4.3

====

Organism: Rattus norvegicus
assay_text: Open TG-GATES - Regimen: Daily Repeat
Type: toxicity, organism-based, Sprague-Dawley
Set-up: regimen Daily Repeat, gender Male, age 6 weeks
run_conditions: in vivo, po, 100 mg/kg, 72 h, tissue Plasma, route gavage, dose level Low, time 3 day
value_type: LDH (IU/L)
Answer with a number only, understood to be in IU/L.

[in] Identify LDH associated with the molecule `NC(N)=Nc1nc(CSCCC(N)=NS(N)(=O)=O)cs1`
[out] 190.6

[in] Identify LDH associated with the molecule `COC1=CC(=O)C[C@@H](C)[C@]12Oc1c(Cl)c(OC)cc(OC)c1C2=O`
[out] 158.2

[in] Identify LDH associated with the molecule CCOc1ccc(NC(=O)CC(C)O)cc1 (stereo not given)
[out] 76.6

[in] Identify LDH associated with the molecule COc1ccc2[nH]c([S+]([O-])Cc3ncc(C)c(OC)c3C)nc2c1 (stereo not given)
[out] 157.2

[in] Identify LDH associated with the molecule CCOC(=O)CCC(=O)O[C@H]1[C@H](O[C@@H]2[C@@H](C)[C@H](O[C@H]3C[C@@](C)(OC)[C@@H](O)[C@H](C)O3)[C@@H](C)C(=O)O[C@H](CC)[C@@](C)(O)[C@H](O)[C@@H](C)C(=O)[C@H](C)C[C@@]2(C)O)O[C@H](C)C[C@@H]1N(C)C [ERYTHROMYCIN ETHYLSUCCINATE]
[out] 179.8
